- assay-notes: Toxicity liver stage against HepG2, at 10uM
- Type: cell-based
- Parameters: test concentration 10 uM, cell line HepG2-A16-CD81EGFP
- run-parameters: human, HepG2-A16-CD81EGFP cells; read-out: INHIBITION
recorded-metric: cytotoxicity at 10 µM (%)

{"compound": "Nc1ncnc2[nH]c(N3CCCCC3)nc12", "readout-value": -1.43}
{"compound": "Cc1nc(C(=O)N2CCN(S(C)(=O)=O)CC2)c(-c2cccc(F)c2)s1", "readout-value": 1.37}
{"compound": "COc1cc(C)nc(N2CCN(C(=O)CCc3ccco3)CC2)n1", "readout-value": 7.92}
{"compound": "CC(C)NC(=O)N1CCC2(CC1)Cc1ccccc1CN(C)C2=O", "readout-value": 5.55}
{"compound": "Cc1noc(CN(C)C(=O)CCn2cnc3ccccc32)n1", "readout-value": 10.1}
{"compound": "COC(=O)c1ccc(-c2ccc(/C=C3\\C(=O)NC(=N)N3C)o2)cc1", "readout-value": -66.3}
{"compound": "O=C(NC1CC1)C1(Cc2cc(-c3ccc(F)cc3F)no2)CCOCC1", "readout-value": 11}
{"compound": "Cc1ncncc1C(=O)N1C[C@@H]2CC[C@H]1CN(C(=O)c1ccncc1)C2", "readout-value": -7.61}
{"compound": "CC(C)N(C)C(=O)CN1C(=O)OC[C@@H]1c1ccccc1", "readout-value": -47.7}
{"compound": "OC(COc1ccccc1Br)COC1CCOCC1 (stereo not drawn)", "readout-value": -8}
{"compound": "CC(=O)NC1CCN(c2nc(N(C)C)nc3c2CCN(C(C)=O)C3)CC1", "readout-value": 0.541}
{"compound": "O=C1OCCN1c1cccc(CNCc2cc(F)ccc2F)c1", "readout-value": 25.3}
{"compound": "CCc1cccc2cc(CNCCOC)c(=O)[nH]c12", "readout-value": 1.47}
{"compound": "COc1ccc(OC)c(CNC2CCCc3nc(N(C)C)ncc32)c1 (stereo not drawn)", "readout-value": -11.2}
{"compound": "Cc1cccc(CN2C[C@@H]3OCCN(c4cnccn4)[C@@H]3C2)n1", "readout-value": 5.25}
{"compound": "C=C(C)CN(CC)C(=O)c1cc(Cl)ccc1NS(C)(=O)=O", "readout-value": 7.17}
{"compound": "Cc1cc(C)c(CNC(=O)N2CCC(N3CCCCC3)CC2)c(=O)[nH]1", "readout-value": 7.53}
{"compound": "Cc1nc(-c2ccncc2)ncc1C(C)NC(=O)C1=NN(C)C(=O)CC1 (stereo not drawn)", "readout-value": -0.205}
{"compound": "O=C1CO[C@@H]2CN(CC3CCOCC3)C[C@H]2N1Cc1ccncc1", "readout-value": -139}
{"compound": "COc1c(CNC(C)C(=O)NC2CCCC2)c(C(C)C)nn1C (stereo not drawn)", "readout-value": -1.08}
{"compound": "Cc1ccc(C(=O)N2CCC(Oc3ccccc3)CC2)c(=O)[nH]1", "readout-value": -1.01}
{"compound": "CC(C)c1nnc2n1CCN(C(=O)c1cnc(C3CC3)s1)C2", "readout-value": 4.87}
{"compound": "O=C(CCn1cccn1)N1CCSCC1", "readout-value": -5.92}
